- assay_info: Cytotoxicity against cat CRFK cells assessed as cell viability at 10 uM after 24 hrs by MTT assay
- Type: cell-based, Felis catus
- setup_conditions: read-out: Activity
Reported viability at 24 h, 10 µM values follow for various compounds

{"sample_smiles": "Cc1nnc(C(=O)NC(C)(C)c2nc(C(=O)NCc3ccc(F)cc3)c(O)c(=O)n2C)o1", "viability at 24 h, 10 µM": "> 100%"}

Consider the compound shown here: Cc1cn([C@H]2C[C@H](N=[N+]=[N-])[C@@H](CO)O2)c(=O)[nH]c1=O What is its recorded viability at 24 h, 10 µM?
> 100%

Consider the compound shown here: CCN1c2c(ssc2=S)Sc2ssc(=S)c21 What is its recorded viability at 24 h, 10 µM?
98.8%

Consider the compound shown here: CCOC(=O)CCn1c2c(=O)ssc2c2ssc(=O)c21 What is its recorded viability at 24 h, 10 µM?
78.2%

Consider the compound shown here: CC(=O)OCCN1c2c(ssc2=O)Sc2ssc(=O)c21 What is its recorded viability at 24 h, 10 µM?
39.2%

###

- assay_info: Therapeutic index, ratio of CC50 for cat CRFK cells to EC50 for Feline immunodeficiency virus infected in cat FL-4 cells
- Assay type: cell-based
- setup_conditions: read-out: Ratio CC50/EC50
Reported selectivity ratio values follow for various molecules
Answer with a bare number; do not write a unit.

{"sample_smiles": "CCn1c2c(=S)ssc2c2ssc(=S)c21", "selectivity ratio": 30.6}
{"sample_smiles": "CCOC(=O)CCN1c2c(ssc2=O)Sc2ssc(=S)c21", "selectivity ratio": 3.5}
{"sample_smiles": "CCOC(=O)CCN1c2c(ssc2=O)Sc2ssc(=O)c21", "selectivity ratio": 3.5}

Next, consider the following molecule.
Consider the molecule shown here: O=C(O)CCN1c2c(ssc2=S)Sc2ssc(=S)c21 What is its recorded selectivity ratio?
4.5

###

- assay_info: Cytotoxicity against cat CRFK cells assessed as cell viability at 10 uM after 24 hrs by MTT assay
- Format: cell-based, Felis catus
- setup_conditions: read-out: Activity
readout: viability at 24 h, 10 µM (%)
Field format: number, assumed %, no unit text.

Consider the compound shown here: CCOC(=O)CCN1c2c(ssc2=O)Sc2ssc(=S)c21 What is its recorded viability at 24 h, 10 µM?
91.2

Consider the compound shown here: CCOC(=O)CCN1c2c(ssc2=O)Sc2ssc(=O)c21 What is its recorded viability at 24 h, 10 µM?
76.8

Consider the compound shown here: O=C(O)CCN1c2c(ssc2=S)Sc2ssc(=S)c21 What is its recorded viability at 24 h, 10 µM?
97.2

Consider the compound shown here: CCN1c2c(ssc2=O)Sc2ssc(=O)c21 What is its recorded viability at 24 h, 10 µM?
40.2

###

Reported CC50 at 168 h values follow for various compounds
- assay_info: Cytotoxicity against cat CRFK cells assessed as cell viability after 7 days by MTT assay
- Assay type: cell-based, Felis catus
- setup_conditions: CRFK cells

Some entries whose results are on file:
{"compound": "Cc1nnc(C(=O)NC(C)(C)c2nc(C(=O)NCc3ccc(F)cc3)c(O)c(=O)n2C)o1 [RALTEGRAVIR]", "CC50 at 168 h": "> 100 µM"}
{"compound": "Cc1cn([C@H]2C[C@H](N=[N+]=[N-])[C@@H](CO)O2)c(=O)[nH]c1=O [ZIDOVUDINE]", "CC50 at 168 h": "> 100 µM"}

Next, consider the following compound.
Consider the compound shown here: CCN1c2c(ssc2=O)Sc2ssc(=S)c21 What is its recorded CC50 at 168 h?
> 10 µM

###

- assay_info: Therapeutic index, ratio of CC50 for cat CRFK cells to EC50 for Feline immunodeficiency virus infected in cat FL-4 cells
- Type: cell-based
- setup_conditions: read-out: Ratio CC50/EC50
Reported selectivity ratio values follow for various compounds

Some entries whose results are on file:
{"sample_smiles": "Cc1nnc(C(=O)NC(C)(C)c2nc(C(=O)NCc3ccc(F)cc3)c(O)c(=O)n2C)o1", "selectivity ratio": "> 100000"}
{"sample_smiles": "Cc1cn([C@H]2C[C@H](N=[N+]=[N-])[C@@H](CO)O2)c(=O)[nH]c1=O", "selectivity ratio": "> 18.8"}
{"sample_smiles": "CCN1c2c(ssc2=O)Sc2ssc(=S)c21", "selectivity ratio": "> 29"}

Next, consider the following compound.
Consider the compound shown here: CCN1c2c(ssc2=S)Sc2ssc(=S)c21 What is its recorded selectivity ratio?
> 31

The measurements presented in this section are drawn from ChEMBL document CHEMBL3286153.
